As shown below, each of these compounds has a reported pH 7 solubility value.
applied-conditions: 1×PBS buffer (pH 7.4), 1.0% DMSO, 24-hour incubation at ambient temperature, maximum theoretical 100 μM; second value of the cell
Report only the number, with the unit μM understood.

Worked cases, answers included:
compound | unit-text | pH 7 solubility
CN(CCNC(=N)N)C(=O)N(c1nn(CC(F)(F)F)c2c(-c3ccc(C#CC(C)(C)S(C)(=O)=O)nc3[C@H](Cc3cc(F)cc(F)c3)NC(=O)Cn3nc(C(F)(F)F)c4c3C(F)(F)[C@@H]3C[C@H]43)ccc(Cl)c12)S(C)(=O)=O [Compound 75] | μM | 13
CC(C)(C#Cc1ccc(-c2ccc(Cl)c3c(N(C(=O)NCCCCP(=O)(O)O)S(C)(=O)=O)nn(CC(F)(F)F)c23)c([C@H](Cc2cc(F)cc(F)c2)NC(=O)Cn2nc(C(F)(F)F)c3c2C(F)(F)[C@@H]2C[C@H]32)n1)S(C)(=O)=O [Compound 55] | μM | 13

Read the next record carefully.
Find the recorded pH 7 solubility belonging to C[C@H](CN(C)C(=O)N(c1nn(CC(F)(F)F)c2c(-c3ccc(C#CC(C)(C)S(C)(=O)=O)nc3[C@H](Cc3cc(F)cc(F)c3)NC(=O)Cn3nc(C(F)(F)F)c4c3C(F)(F)[C@@H]3C[C@H]43)ccc(Cl)c12)S(C)(=O)=O)OP(=O)(O)O [Compound 49] and report it.
82

The reported measurements were obtained from patent US12404262B2.
